Recorded values, source PubChem BioAssay AID485341.

# SYSTEM NAME: Beta-lactamase (Escherichia coli (strain K12)) (UniProt P00811)
# Sequence (P00811 whole entry, looked up): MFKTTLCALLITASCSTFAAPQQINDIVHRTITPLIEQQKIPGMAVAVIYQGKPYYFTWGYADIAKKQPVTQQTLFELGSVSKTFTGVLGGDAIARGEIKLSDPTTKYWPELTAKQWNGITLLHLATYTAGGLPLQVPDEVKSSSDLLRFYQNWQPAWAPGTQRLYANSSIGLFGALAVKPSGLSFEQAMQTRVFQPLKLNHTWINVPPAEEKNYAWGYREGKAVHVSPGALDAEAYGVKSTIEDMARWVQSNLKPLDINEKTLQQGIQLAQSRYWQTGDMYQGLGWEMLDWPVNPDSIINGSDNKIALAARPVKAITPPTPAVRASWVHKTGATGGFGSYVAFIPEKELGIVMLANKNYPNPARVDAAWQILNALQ
# MEASUREMENT NOTES: qHTS Inhibitors of AmpC Beta-Lactamase (assay without detergent); further: nearly all actives have a fitted effect of over 20% in size
# RUN CONDITIONS: AmpC nitrocefin hydrolysis, absorbance 480 nm, 0.0001% Triton; series mostly up to 57.1 µM
Among all 330,000 compounds or so, about 1,700 (0.52%) were called active. The call rests on the fitted dose curve; in most records, active means well fitted inhibition curve with a large enough effect; inconclusive means small, poorly fitted or top-dose-only effect; inactive means no such curve, though single readings can be large or run the other way. For the sample, actives were picked, then their nearest neighbours and some compounds at random.
Labels: Y for active, N for inactive

INSERT INTO measurements (compound, label) VALUES
  ('N#C/C(=C(/O)COC(=O)COc1ccc(Cl)cc1)c1nc2ccccc2[nH]1', 'Y'),
  ('Cc1ccc(C(C)NC(=O)Cn2nc(C)c([N+](=O)[O-])c2C)cc1 (stereo unspecified)', 'N'),
  ('CCCCn1c(SCC(=O)N2CCCC2=O)nc2cc(S(N)(=O)=O)ccc21', 'N'),
  ('Cc1ccc(OCC(=O)NC(C)c2ccccc2)c([N+](=O)[O-])n1 (stereo unspecified)', 'N'),
  ('CCN(CC(=O)Nc1ccc(Cl)c(S(=O)(=O)N(C)C)c1)Cc1nc2ccccc2c(=O)[nH]1', 'N'),
  ('COCCN(CCOC)S(=O)(=O)c1ccc(/C(O)=C(\C#N)c2nc3ccccc3[nH]2)cc1', 'N'),
  ('Cc1nn(Cc2ccc(F)cc2)c(C)c1NC(=O)c1noc2c1CCc1ccccc1-2', 'Y'),
  ('CC(C)N(c1ccccc1)c1ncnc(NCCC(=O)O)c1[N+](=O)[O-]', 'Y'),
  ('CCC(C)NC(=O)c1ccccc1NC(=O)c1ccccc1N(C)S(C)(=O)=O (stereo unspecified)', 'N'),
  ('COCCOC(=O)c1[nH]c2c(c1C)C(=O)CC(c1ccc(OC)cc1)C2 (stereo unspecified)', 'N'),
  ('CCc1ccccc1NC(=O)CSc1nnc([C@@H](NC(=O)OC(C)(C)C)C(C)CC)o1 (stereo partly specified)', 'N'),
  ('CCCNS(=O)(=O)c1ccc(CCC(=O)N2CCCC2)cc1', 'N'),
  ('Cc1ccc(CNC(=O)CCNS(=O)(=O)c2cccc3nonc23)cc1', 'N'),
  ('CCNC(=O)NC(=O)C(C)OC(=O)C1CCN(S(=O)(=O)c2ccccc2F)CC1 (stereo unspecified)', 'N'),
  ('Cc1ccc(N(CC(=O)Nc2cc(C)cc(C)c2)S(=O)(=O)c2cccc3nonc23)cc1', 'Y'),
  ('O=S(=O)(Nc1ncccn1)c1ccc(NS(=O)(=O)c2cccc(Cl)c2Cl)cc1', 'N'),
  ('CCCOC(=O)c1[nH]c2c(c1C)C(=O)CC(c1cccs1)C2 (stereo unspecified)', 'N'),
  ('CCCOC(=O)c1[nH]c2c(c1C)C(=O)CC(c1cc(OC)c(OC)c(OC)c1)C2 (stereo unspecified)', 'Y'),
  ('COc1cc(OC)cc(C(=O)NNC(=O)CNC(=O)c2ccc(Br)o2)c1', 'N'),
  ('COc1ccc(CNC(=O)CN2C(=O)NC3(CCCc4sccc43)C2=O)cc1 (stereo unspecified)', 'N'),
  ('CCOC(=O)c1cccc(NC(=O)CN(c2ccc(C)cc2)S(=O)(=O)c2c(C)noc2C)c1', 'N');
